Assignment: determine reported IC50 for the given compounds.
System: phosphorylation of ERK, KRAS G12V in SW620
protocol notes: pERK inhibition assay, KRAS G12V
Type: cell-based, human
recorded conditions: Homo sapiens, SW-620, SW620, 4 hours
Report the value in µM with no unit label.

Data point: CO[C@@H](C)c1ncc(N2CCN(C)CC2)cc1-c1c2c3c(F)c(ccc3n1CC(F)(F)F)-c1cc(O)cc(c1)C[C@H](NC(=O)[C@H](C(C)C)N(C)C(=O)[C@H]1CCN(C(=O)[C@H](F)Cl)C1)C(=O)N1CCC[C@H](N1)C(=O)OCC(C)(C)C2 (atropisomer, axis not shown; (M)) ; IC50 = 0.01

Data point: CO[C@@H](C)c1ncc(N2CCOCC2)cc1-c1c2c3cc(c(F)cc3n1CC(F)(F)F)-c1csc(n1)C[C@H](NC(=O)[C@H](C(C)C)N1CC[C@]3(CCN(C(=O)[C@H](F)Cl)C3)C1=O)C(=O)N1CCC[C@H](N1)C(=O)OCC(C)(C)C2 (atropisomer, axis not shown; (M)) ; IC50 = 0.033

Data point: CO[C@@H](C)c1ncc(N2CCN(C)CC2)cc1-c1c2c3c(F)c(ccc3n1CC(F)(F)F)-c1csc(n1)C[C@H](NC(=O)[C@H](C(C)C)N1CCCC3(CCN(C(=O)[C@H](F)Cl)CC3)C1=O)C(=O)N1CCC[C@H](N1)C(=O)OCC(C)(C)C2 (atropisomer, axis not shown; (M)) ; IC50 = 0.073

Data point: CO[C@@H](C)c1ncc(N2CCN(C)CC2)cc1-c1c2c3cc(c(F)cc3n1CC(F)(F)F)-c1csc(n1)C[C@H](NC(=O)[C@H](C(C)C)N1CCC[C@@]3(CCN(C(=O)[C@H](F)Cl)C3)C1=O)C(=O)N1CCC[C@H](N1)C(=O)OCC(C)(C)C2 (single isomer, unassigned) ; IC50 = 0.015

Data point: CCn1c(-c2cc(N3CCN(CC(F)(F)F)CC3)cnc2[C@H](C)OC)c2c3cc(c(F)cc31)-c1csc(n1)C[C@H](NC(=O)[C@H](C(C)C)N1CCC3(CN(C(=O)[C@H](F)Cl)C3)C1=O)C(=O)N1CCC[C@H](N1)C(=O)OCC(C)(C)C2 (atropisomer, axis not shown; (M)) ; IC50 = 0.021

Data point: CCn1c(-c2cc(N3CCN(CC(F)(F)F)CC3)cnc2[C@H](C)OC)c2c3cc(c(F)cc31)-c1csc(n1)C[C@H](NC(=O)[C@H](C(C)C)N(C)C(=O)[C@H]1CCN(C(=O)[C@H](F)Cl)C1)C(=O)N1CCC[C@H](N1)C(=O)OCC(C)(C)C2 (atropisomer, axis not shown; (M)) ; IC50 = 0.008

Data point: CCn1c(-c2cc(N3CCN(C)CC3)cnc2[C@H](C)OC)c2c3cc(c(F)cc31)-c1csc(n1)C[C@H](NC(=O)[C@H](COC1CN(C(=O)[C@H](F)Cl)C1)C(C)C)C(=O)N1CCC[C@H](N1)C(=O)OCC(C)(C)C2 (atropisomer, axis not shown; (M)) ; IC50 = 0.199

###

Assignment: determine reported IC50 for the given molecules.
target of assay: KRAS G12C-BRAF complex (Homo sapiens (Human), UniProt P01116+P62937, G12C)
Sequence (P01116-2 other isoform, or with tags, fused parts or gaps G12C): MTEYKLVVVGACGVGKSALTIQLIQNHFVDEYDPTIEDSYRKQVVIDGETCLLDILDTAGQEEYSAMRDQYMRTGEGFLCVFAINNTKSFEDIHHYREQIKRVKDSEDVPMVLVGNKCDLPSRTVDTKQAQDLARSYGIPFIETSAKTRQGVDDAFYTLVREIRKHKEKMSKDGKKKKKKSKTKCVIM
Sequence (P62937 whole entry): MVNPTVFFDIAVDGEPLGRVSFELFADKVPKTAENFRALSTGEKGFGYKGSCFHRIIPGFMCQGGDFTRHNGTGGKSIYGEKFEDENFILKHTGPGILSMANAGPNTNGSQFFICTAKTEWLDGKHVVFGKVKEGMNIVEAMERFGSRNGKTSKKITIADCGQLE
protocol notes: KRAS G12C-BRAF NanoBit assay
Assay type: cell-based
recorded conditions: HEK293 cells, 3 hours of incubation
Report the value in nM with no unit label.

Hey, KRAS G12C-BRAF complex (Homo sapiens (Human), UniProt P01116+P62937, G12C) data for CC(C)[C@@H](C(=O)N[C@H]1Cc2cc(O)cc(c2)-c2ccc3c(C(C)(C)C#N)cn(c3c2)CC(C)(C)COC(=O)[C@@H]2CCCN(N2)C1=O)N1CCC2(CN(C(=O)CCl)C2)C1=O [RM44, reference compound] : IC50 came out at 11700

Hey, KRAS G12C-BRAF complex (Homo sapiens (Human), UniProt P01116+P62937, G12C) data for CO[C@@H](C)c1ncc(N2CCN(C)CC2)cc1-c1c2c3cc(c(F)cc3n1CC(F)(F)F)-c1csc(n1)C[C@H](NC(=O)[C@H](C(C)C)N1CCC[C@]3(CCN(C(=O)[C@H](F)Cl)C3)C1=O)C(=O)N1CCC[C@H](N1)C(=O)OCC(C)(C)C2 (single isomer, unassigned) [Example 18] : IC50 came out at 12

Hey, KRAS G12C-BRAF complex (Homo sapiens (Human), UniProt P01116+P62937, G12C) data for CO[C@@H](C)c1ncc(N2CCN(C)CC2)cc1-c1c2c3cc(c(F)cc3n1CC(F)(F)F)-c1cc(O)cc(c1)C[C@H](NC(=O)[C@H](C(C)C)N(C)C(=O)[C@H]1CCN(C(=O)[C@H](F)Cl)C1)C(=O)N1CCC[C@H](N1)C(=O)OCC(C)(C)C2 (atropisomer, axis not shown; (M)) [Example 8] : IC50 came out at 43

Hey, KRAS G12C-BRAF complex (Homo sapiens (Human), UniProt P01116+P62937, G12C) data for CC(C)[C@@H](C(=O)N[C@H]1Cc2cc(O)cc(c2)-c2ccc3c(C(C)(C)C#N)cn(c3c2)CC(C)(C)COC(=O)[C@@H]2CCCN(N2)C1=O)N1CCCC2(CCN(C(=O)CCl)C2)C1=O (stereo partly drawn) [RM351, reference compound] : IC50 came out at 1780

Hey, KRAS G12C-BRAF complex (Homo sapiens (Human), UniProt P01116+P62937, G12C) data for CCn1c(-c2cc(N3CCOCC3)cnc2[C@H](C)OC)c2c3cc(c(F)cc31)-c1csc(n1)C[C@H](NC(=O)[C@H](C(C)C)N(C)C(=O)[C@H]1CCN(C(=O)[C@H](F)Cl)C1)C(=O)N1CCC[C@H](N1)C(=O)OCC(C)(C)C2 (atropisomer, axis not shown; (M)) [Example 55] : IC50 came out at 10

Hey, KRAS G12C-BRAF complex (Homo sapiens (Human), UniProt P01116+P62937, G12C) data for CO[C@@H](C)c1ncc(N2CCN(C)CC2)cc1-c1c2c3cc(c(C)cc3n1CC(F)(F)F)-c1csc(n1)C[C@H](NC(=O)[C@H](C(C)C)N(C)C(=O)C1(F)CCN(C(=O)[C@H](F)Cl)CC1)C(=O)N1CCC[C@H](N1)C(=O)OCC(C)(C)C2 (atropisomer, axis not shown; (M)) [Example 9] : IC50 came out at 64

Hey, KRAS G12C-BRAF complex (Homo sapiens (Human), UniProt P01116+P62937, G12C) data for CO[C@@H](C)c1ncc(N2CCN(C)CC2)cc1-c1c2c3cc(c(F)cc3n1CC(F)(F)F)-c1csc(n1)C[C@H](NC(=O)[C@H](COC1CN(C(=O)[C@H](F)Cl)C1)C(C)C)C(=O)N1CCC[C@H](N1)C(=O)OCC(C)(C)C2 (atropisomer, axis not shown; (M)) [Example 14] : IC50 came out at 106

Hey, KRAS G12C-BRAF complex (Homo sapiens (Human), UniProt P01116+P62937, G12C) data for CO[C@@H](C)c1ncc(N2CCN(C)CC2)cc1-c1c2c3cc(c(F)cc3n1CC(F)(F)F)-c1csc(n1)C[C@H](NC(=O)[C@H](C(C)C)N1CCC3(CCN(C(=O)[C@H](F)Cl)CC3)C1=O)C(=O)N1CCC[C@H](N1)C(=O)OCC(C)(C)C2 (atropisomer, axis not shown; (M)) [Example 15] : IC50 came out at 32

Hey, KRAS G12C-BRAF complex (Homo sapiens (Human), UniProt P01116+P62937, G12C) data for CO[C@@H](C)c1ncc(N2CCN(C)CC2)cc1-c1c2c3cc(c(F)cc3n1CC(F)(F)F)-c1csc(n1)C[C@H](NC(=O)[C@H](C(C)C)N1CCC[C@@]3(CCN(C(=O)[C@H](F)Cl)C3)C1=O)C(=O)N1CCC[C@H](N1)C(=O)OCC(C)(C)C2 (single isomer, unassigned) [Example 16] : IC50 came out at 8

Hey, KRAS G12C-BRAF complex (Homo sapiens (Human), UniProt P01116+P62937, G12C) data for CO[C@@H](C)c1ncc(N2CCN(C)CC2)cc1-c1c2c3cc(c(F)cc3n1CC(F)(F)F)-c1csc(n1)C[C@H](NC(=O)[C@@H](COC1CN(C(=O)[C@H](F)Cl)C1)C(C)C)C(=O)N1CCC[C@H](N1)C(=O)OCC(C)(C)C2 (atropisomer, axis not shown; (M)) [Example 13] : IC50 came out at 27

Hey, KRAS G12C-BRAF complex (Homo sapiens (Human), UniProt P01116+P62937, G12C) data for CO[C@@H](C)c1ncc(N2CCN(C)CC2)cc1-c1c2c3cc(c(F)cc3n1CC(F)(F)F)-c1csc(n1)C[C@H](NC(=O)[C@H](C(C)C)N1CCCC3(CN(C(=O)[C@H](F)Cl)C3)C1=O)C(=O)N1CCC[C@H](N1)C(=O)OCC(C)(C)C2 (atropisomer, axis not shown; (M)) [Example 11] : IC50 came out at 5

Hey, KRAS G12C-BRAF complex (Homo sapiens (Human), UniProt P01116+P62937, G12C) data for CCn1c(-c2cc(N3CCN(CC(F)(F)F)CC3)cnc2[C@H](C)OC)c2c3cc(c(F)cc31)-c1csc(n1)C[C@H](NC(=O)[C@H](C(C)C)N(C)C(=O)C1(F)CCN(C(=O)[C@H](F)Cl)CC1)C(=O)N1CCC[C@H](N1)C(=O)OCC(C)(C)C2 (atropisomer, axis not shown; (M)) [Example 49] : IC50 came out at 8

Hey, KRAS G12C-BRAF complex (Homo sapiens (Human), UniProt P01116+P62937, G12C) data for CCn1c(-c2cc(N3CCOCC3)cnc2[C@H](C)OC)c2c3cc(c(F)cc31)-c1csc(n1)C[C@H](NC(=O)[C@H](C(C)C)N(C)C(=O)C1(F)CCN(C(=O)[C@H](F)Cl)CC1)C(=O)N1CCC[C@H](N1)C(=O)OCC(C)(C)C2 (atropisomer, axis not shown; (M)) [Example 54] : IC50 came out at 3

Hey, KRAS G12C-BRAF complex (Homo sapiens (Human), UniProt P01116+P62937, G12C) data for CO[C@@H](C)c1ncc(N2CCN(C)CC2)cc1-c1c2c3c(F)c(ccc3n1CC(F)(F)F)-c1csc(n1)C[C@H](NC(=O)[C@H](C(C)C)N1CCCC3(CCN(C(=O)[C@H](F)Cl)CC3)C1=O)C(=O)N1CCC[C@H](N1)C(=O)OCC(C)(C)C2 (atropisomer, axis not shown; (M)) [Example 20] : IC50 came out at 47

Hey, KRAS G12C-BRAF complex (Homo sapiens (Human), UniProt P01116+P62937, G12C) data for CCn1c(-c2cc(N3CCOCC3)cnc2[C@H](C)OC)c2c3cc(c(F)cc31)-c1csc(n1)C[C@H](NC(=O)[C@H](C(C)C)N1CC[C@@]3(CCN(C(=O)[C@H](F)Cl)C3)C1=O)C(=O)N1CCC[C@H](N1)C(=O)OCC(C)(C)C2 (atropisomer, axis not shown; (M)) [Example 53] : IC50 came out at 17
